system: Factor Xa; assay: Factor Xa inhibition EC50 (fixed heparin concentrations, different amounts of heparin antagonist); assay type: biochemical; conditions: read-out: FactorXa Inhibition: EC50
So I've got a bunch of compounds here, and I need their EC50 values.
Use µM as the unit, but write only the number.

// query Looking for the measured EC50 of NCCOc1cc(OCCN)c(C(=O)Nc2cccc(N)c2SCCN)cc1C(=O)Nc1cccc(N)c1SCCN , can you help?
// result 5.3

// query Looking for the measured EC50 of N=C(N)NCCC[C@@H](N)C(=O)Nc1cccc(NC(=O)c2cc(C(=O)Nc3cccc(NC(=O)[C@H](N)CCCNC(=N)N)c3SCCN)c(OCCN)cc2OCCN)c1SCCN , can you help?
// result 2

// query Looking for the measured EC50 of CC(C)(C)c1cc(NC(=O)c2cccc(C(=O)Nc3cc(C(C)(C)C)cc(NC(=O)[C@H](N)CCCNC(=N)N)c3SCCN)c2)c(SCCN)c(NC(=O)[C@H](N)CCCNC(=N)N)c1 , can you help?
// result 3.7

// query Looking for the measured EC50 of N=C(N)NCCOc1cc(OCCNC(=N)N)c(C(=O)Nc2cccc(N)c2SCCNC(=N)N)cc1C(=O)Nc1cccc(N)c1SCCNC(=N)N , can you help?
// result 9.7

---

system: Factor Xa; test: anti-heparin assay, % Factor Xa inhibition at single concentration (chromogenic substrate S-2765); assay type: biochemical; conditions: Single concentration (10 ug/ml)
Returns one of satisfied or not satisfied; satisfied when % FactorXa Inhibition is >= 9%.

// query Reported % FactorXa Inhibition reaches at least 9% for CC(=O)Nc1cc(C(C)(C)C)cc(NC(=O)c2cccc(C(=O)Nc3cc(C(C)(C)C)cc(NC(C)=O)c3SCCN)c2)c1SCCN ?
// result not satisfied

// query Reported % FactorXa Inhibition reaches at least 9% for CC(C)(C)c1cc(N)c(SCCNC(=N)N)c(NC(=O)c2cc(C(=O)Nc3cc(C(C)(C)C)cc(N)c3SCCNC(=N)N)c(OCCN)cc2OCCN)c1 ?
// result satisfied

// query Reported % FactorXa Inhibition reaches at least 9% for N=C(N)NCCCCC(=O)Nc1cccc(NC(=O)c2cc(C(=O)Nc3cccc(NC(=O)NCCCNC(=N)N)c3SCCN)c(OCCN)cc2OCCN)c1SCCN ?
// result satisfied

// query Reported % FactorXa Inhibition reaches at least 9% for CC(=O)Nc1cc(C(C)(C)C)cc(NC(=O)c2cc(OCCN)cc(C(=O)Nc3cc(C(C)(C)C)cc(NC(C)=O)c3SCCN)c2)c1SCCN ?
// result not satisfied

// query Reported % FactorXa Inhibition reaches at least 9% for CC(C)(C)c1cc(N)c(SCCNC(=N)N)c(NC(=O)c2cc(OCCNC(=N)N)cc(C(=O)Nc3cc(C(C)(C)C)cc(N)c3SCCNC(=N)N)c2)c1 ?
// result satisfied

// query Reported % FactorXa Inhibition reaches at least 9% for CC(C)(C)c1cc(NC(=O)CCCCNC(=N)N)c(SCCN)c(NC(=O)c2cccc(C(=O)Nc3cc(C(C)(C)C)cc(NC(=O)CCCCNC(=N)N)c3SCCN)c2)c1 ?
// result satisfied
